# Test system: Staphylococcus aureus
# test method notes: Antibacterial susceptibility testing (MIC/MBC), S. aureus
# Format: cell-based
# condition summary: Staphylococcus aureus, DSM20231, strain DSM 20231; read-out: MIC S. aureus DSM 20231
metric name: MIC

compound	MIC
CC(=O)Nc1cccc(OCc2cccc([N+](=O)[O-])c2)c1	> 500 µg/mL
CC(C)(C)c1ccc(O)c(CNc2ccccc2)c1	500 µg/mL
CC(=O)Nc1ccc(-c2ccc(F)cc2)cc1	> 500 µg/mL

Return value of MIC for input O=C(CCN1c2ccccc2Sc2ccccc21)OCc1cc(=O)n2ccsc2n1 , no commentary.
> 500 µg/mL

Return value of MIC for input O=C(NCc1cccc(Cl)c1)Nc1ccccc1 , no commentary.
> 500 µg/mL

Return value of MIC for input CC(C)(C)c1ccc(NS(=O)(=O)c2ccc(N)cc2)cc1 , no commentary.
> 500 µg/mL

Return value of MIC for input CC(NCc1cccc2ccccc12)c1ccc(F)cc1 (centres unmarked) , no commentary.
> 500 µg/mL

Return value of MIC for input CC(=O)Nc1ccc(C(=O)C(O)c2ccc(NC(C)=O)cc2)cc1 (centres unmarked) , no commentary.
> 500 µg/mL

Return value of MIC for input CC(=O)Nc1cccc(C=Cc2ccc([N+](=O)[O-])cc2)c1 , no commentary.
> 500 µg/mL

Return value of MIC for input Nc1nnc(-c2ccc(Br)cc2)o1 , no commentary.
> 500 µg/mL

Return value of MIC for input CC(=O)Nc1cccc(OCOc2ccc([N+](=O)[O-])cc2)c1 , no commentary.
> 500 µg/mL
